Tested on: EKVX NSCLC
EXPERIMENT_SUMMARY: NCI tumour cell line growth inhibition, 48 h
TEST_READOUT: TGI

# query: TGI | item Cc1ccc2c(-c3ccnc(Nc4ccccc4)n3)c(-c3ccc(F)cc3)nn2n1 | system: EKVX NSCLC
> 25 µM

Consider next the molecule COc1cc2ncn(-c3cc(O[C@@H](C)c4ccccc4Cl)c(C(N)=O)s3)c2cc1OC in the same way.
> 25 µM

Consider next the molecule Cc1cccc(C)c1CO in the same way.
> 100 µM

---

I'd appreciate it if you could supply GI50 values for the items below.
System: HT29 colon
EXPERIMENT_SUMMARY: NCI tumour cell line growth inhibition, 48 h

Please look up its GI50: NC1CCC(Nc2nc(NCc3ccc(-c4ccccc4O)nc3)c3ncn(C4CCCC4)c3n2)CC1 (configuration not stated)
< 0.01 µM

Consider next the compound Cc1cc(O)cc2c1[C@]1(C)CCC3C(C)(C)CCC[C@]3(C)[C@H]1C2 (some centres not stated) in the same way.
18.5 µM

Consider next the compound COc1cccc(/C=C/[N+](=O)[O-])c1 in the same way.
1.92 µM

Consider next the compound C=C(NC(=O)C(=C)NC(=O)c1csc(C2=NC3c4csc(n4)C4NC(=O)c5csc(n5)C(C(C)(O)C(C)O)NC(=O)C5CSC(=N5)C(=CC)NC(=O)C(C(C)O)NC(=O)c5csc(n5)C3(CC2)NC(=O)C(C)NC(=O)C(=C)NC(=O)C(C)NC(=O)C(C(C)CC)NC2C=Cc3c(C(C)O)cc(nc3C2O)C(=O)OC4C)n1)C(N)=O (configuration not stated) in the same way.
10.4 µM

Consider next the compound CS(=O)(=O)CCNCc1ccc(-c2ccc3ncnc(Nc4ccc(OCc5ccccc5)c(Br)c4)c3c2)o1 in the same way.
4.72 µM

Consider next the compound C[C@]12CC[C@H](OC3OC(CO)C(O)C(O)C3O)C[C@H]1CC[C@@H]1[C@@H]2CC[C@]2(C)[C@@H](C3=CCOC3=O)CC[C@]12O (some centres not stated) in the same way.
> 100 µM

Consider next the compound COC(=O)c1cc2c3ccccc3n3c(=O)c4cc5ccccc5nc4c(n1)c23 in the same way.
> 100 µM
